A short record of IC50 observed with Cyclin-dependent kinase 1 (Homo sapiens, UniProt P06493) follows.
Sequence (P06493 whole entry): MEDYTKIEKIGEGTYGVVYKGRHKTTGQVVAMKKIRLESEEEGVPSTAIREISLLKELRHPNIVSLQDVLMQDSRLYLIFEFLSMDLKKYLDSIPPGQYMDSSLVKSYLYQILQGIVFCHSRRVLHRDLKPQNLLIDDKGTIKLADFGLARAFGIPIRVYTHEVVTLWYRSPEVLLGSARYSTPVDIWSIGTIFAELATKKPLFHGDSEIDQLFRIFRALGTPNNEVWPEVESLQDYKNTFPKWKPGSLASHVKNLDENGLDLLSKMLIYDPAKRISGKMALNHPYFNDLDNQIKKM
readout.label: IC50 (nM)

P: Brc1cnc(Nc2ccc3nc[nH]c3c2)nc1Nc1ccc(Oc2cccnc2)cc1
Q: COc1cccc(Oc2nc(Nc3ccc4nc[nH]c4c3)ncc2C(F)(F)F)c1
R: Cc1ccccc1Oc1nc(Nc2ccc3[nH]cnc3c2)ncc1C(F)(F)F
S: NS(=O)(=O)c1ccc(Nc2ncc(C(F)(F)F)c(Nc3ccc4nc[nH]c4c3)n2)cc1
Query: Put the above entries in order of falling IC50. I'd appreciate it if you listed the labels in the requested order.
Response: Q, P, R, S
(Q: 160 nM, P: 34 nM, R: 4 nM, S: 0.1 nM)

----------
A short record of IC50 observed with Cyclin-dependent kinase 1 (Homo sapiens, UniProt P06493) follows.

Query: State the measured IC50 (Cyclin-dependent kinase 1 (Homo sapiens, UniProt P06493)) of c1cc(Nc2ccc3[nH]ccc3c2)nc(Nc2ccc3[nH]ccc3c2)n1
Response: > 1000 nM

Query: State the measured IC50 (Cyclin-dependent kinase 1 (Homo sapiens, UniProt P06493)) of c1cc(Nc2ccc3[nH]cnc3c2)nc(Nc2ccc3[nH]cnc3c2)n1
Response: > 1000 nM

----------
A short record of IC50 observed with Cyclin-dependent kinase 1 (Homo sapiens) follows.
readout.label: IC50 (nM)

P: Fc1ccc(Oc2nc(Nc3ccc4[nH]cnc4c3)ncc2C(F)(F)F)cc1
Q: FC(F)(F)c1cnc(Nc2ccc3nc[nH]c3c2)nc1Nc1cccc(Cl)c1
R: Clc1cccc(CNc2nc(Nc3ccc4[nH]cnc4c3)ncc2Br)c1Cl
Query: In this exercise, place the 3 compounds in ascending sequence of their recorded IC50. I'd appreciate it if you listed the labels in the requested order.
Response: Q, P, R
(Q: 3 nM, P: 32 nM, R: 126 nM)

----------
Measured pIC50 by item
# target: Cyclin-dependent kinase 1 (Homo sapiens)
pIC50: −log10 of the molar value.

[[record]]
molecular_string = "FC(F)(F)c1cnc(Nc2ccc3[nH]ccc3c2)nc1Nc1ccc2[nH]ccc2c1"
target = "Cyclin-dependent kinase 1 (Homo sapiens)"
test_result = "< 6.00"

[[record]]
molecular_string = "CN(c1cccc(Cl)c1)c1ncc(C(F)(F)F)c(Nc2ccc3nc[nH]c3c2)n1"
target = "Cyclin-dependent kinase 1 (Homo sapiens)"
test_result = "< 6.00"


Query: Using known records, supply pIC50 for Fc1cnc(Nc2ccc3[nH]ccc3c2)nc1Nc1ccc2[nH]ccc2c1
Response: < 6.00

Data origin: ChEMBL document CHEMBL1141920
